Each entry below carries its reported Antifungal MIC100 in Combination.
- Test system: Exophiala dermatitidis CA01
- ASSAY TEXT: Broth microdilution chequerboard analysis of Lynovex (NM001) in combination with clinical antifungals
- Format: cell-based
- APPLIED CONDITIONS: Range; in combination with Lynovex (NM001); 72 h, 35° C.
VALUE KIND: Antifungal MIC100 in Combination (µg/mL)

INSERT INTO results (chemical_smiles, experimental_system, meas_value) VALUES
  ('CC[C@H](C)C[C@H](C)CCCCCCCCC(=O)N[C@H]1C[C@@H](O)[C@@H](NCCN)NC(=O)[C@@H]2[C@@H](O)CCN2C(=O)[C@H]([C@H](O)CCN)NC(=O)[C@H]([C@H](O)[C@@H](O)c2ccc(O)cc2)NC(=O)[C@@H]2C[C@@H](O)CN2C(=O)[C@H]([C@@H](C)O)NC1=O', 'Exophiala dermatitidis CA01', 2.0),
  ('C[C@@H]1[C@H](O)[C@@H](C)/C=C/C=C/C=C/C=C/C=C/C=C/C=C/[C@H](O[C@@H]2O[C@H](C)[C@@H](O)[C@H](N)[C@@H]2O)C[C@@H]2O[C@](O)(C[C@@H](O)C[C@@H](O)[C@H](O)CC[C@@H](O)C[C@@H](O)CC(=O)O[C@H]1C)C[C@H](O)[C@H]2C(=O)O', 'Exophiala dermatitidis CA01', 0.23);

----------
Each entry below carries its reported Antifungal MIC50 in Combination.
- Test system: Exophiala dermatitidis CA01
- ASSAY TEXT: Broth microdilution chequerboard analysis of Lynovex (NM001) in combination with clinical antifungals
- Assay type: cell-based
- APPLIED CONDITIONS: Range; in combination with Lynovex (NM001); 144 h, 35° C.
VALUE KIND: Antifungal MIC50 in Combination (µg/mL)

INSERT INTO measurements (compound, value_kind, unit_symbol, meas_value) VALUES
  ('CC[C@H](C)C[C@H](C)CCCCCCCCC(=O)N[C@H]1C[C@@H](O)[C@@H](NCCN)NC(=O)[C@@H]2[C@@H](O)CCN2C(=O)[C@H]([C@H](O)CCN)NC(=O)[C@H]([C@H](O)[C@@H](O)c2ccc(O)cc2)NC(=O)[C@@H]2C[C@@H](O)CN2C(=O)[C@H]([C@@H](C)O)NC1=O [Caspofungin]', 'Antifungal MIC50 in Combination', 'µg/mL', 0.23),
  ('C[C@@H]1[C@H](O)[C@@H](C)/C=C/C=C/C=C/C=C/C=C/C=C/C=C/[C@H](O[C@@H]2O[C@H](C)[C@@H](O)[C@H](N)[C@@H]2O)C[C@@H]2O[C@](O)(C[C@@H](O)C[C@@H](O)[C@H](O)CC[C@@H](O)C[C@@H](O)CC(=O)O[C@H]1C)C[C@H](O)[C@H]2C(=O)O [Amphotericin B]', 'Antifungal MIC50 in Combination', 'µg/mL', 0.23);
